# tested target: hGLP-1R (Homo sapiens, UniProt P43220)
# Sequence (P43220 24-463): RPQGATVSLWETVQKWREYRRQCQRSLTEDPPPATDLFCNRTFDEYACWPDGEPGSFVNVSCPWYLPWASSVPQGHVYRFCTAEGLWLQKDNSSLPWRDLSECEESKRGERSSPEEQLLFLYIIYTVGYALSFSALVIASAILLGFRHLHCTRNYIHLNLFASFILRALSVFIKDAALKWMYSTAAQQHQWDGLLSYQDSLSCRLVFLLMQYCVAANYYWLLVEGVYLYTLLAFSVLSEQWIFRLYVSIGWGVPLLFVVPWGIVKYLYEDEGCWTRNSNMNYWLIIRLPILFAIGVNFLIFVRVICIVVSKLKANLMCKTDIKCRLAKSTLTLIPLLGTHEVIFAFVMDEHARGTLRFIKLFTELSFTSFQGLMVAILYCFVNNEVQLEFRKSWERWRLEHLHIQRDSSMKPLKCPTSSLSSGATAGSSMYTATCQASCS
# measurement protocol: cell-based or functional assay
reported property: cAMP Rel EC50, nM (1% HSA) (nM)

• YXQGTXTSDYSILLDXKAQXAFIEYLEEGGPSSGAPPPS (synthetic construct; SITE 2: note = 2-Aminoisobutyric Acid; SITE 6: note = alpha-methyl-2-fluoro-L-phenylalanine; SITE 16: note = L-ornithine; SITE 17: note = Lysine is chemically modified through conjugation of the epsilon-amino group of the Lysine side chain with (gamma-Glu)2-CO-(CH2)16-CO2H; SITE) [Example 414] = 32.8
• YXQGTXTSDYSILLDKKAQXAFIEYLEEGGPSSGAPPPE (not fully specified; synthetic construct; SITE 2: note = 2-Aminoisobutyric Acid; SITE 6: note = alpha-methyl-2-fluoro-L-phenylalanine; SITE 17: note = Lysine is chemically modified through conjugation of the epsilon-amino group of the Lysine side chain with (2-[2-(2-Amino-ethoxy)-ethoxy]-acetyl)-(gamma-Glu)-CO-(CH2) 16-) [Example 388] = 52.5
• YXQGTFTSDFSQXLDKKAQXAFIEYLLEAGPSSGAPPPSGS (synthetic construct; SITE 2: note = 2-Aminoisobutyric Acid; SITE 13: note = alpha-methyl-leucine; SITE 17: note = Lysine is chemically modified through conjugation of the epsilon-amino group of the Lysine side chain with (2-[2-(2-Amino-ethoxy)-ethoxy]-acetyl)-(gamma-Glu)-CO-(CH2) 16-CO2H; SITE 20: n) [Example 775] = 202
